The values you see were collected from the supplement of paper PMC5998384.

system: HeLa Kyoto; test: thermal stability score vs G1/S (z-score of summed log2 fold changes over temperatures); higher = more thermally stable than in G1/S; conditions: cell cycle stage: mitosis
Form field: thermal stability score (one value per entry).
Please reply with the value in numeric form only.

Take a look at these entries with their results.
1) MMIHGFQSSHRDFCFGPWKLTASKTHIMKSADVEKLADELHMPSLPEMMFGDNVLRIQHGSGFGIEFNATDALRCVNNYQGMLKVACAEEWQESRTEGEHSKEVIKPYDWTYTTDYKGTLLGESLKLKVVPTTDHIDTEKLKAREQIKFFEEVLLFEDELHDHGVSSLSVKIRVMPSSFFLLLRFFLRIDGVLIRMNDTRLYHEADKTYMLREYTSRESKISSLMHVPPSLFTEPNEISQYLPIKEAVCEKLIFPERIDPNPADSQKSTQVE [TIPRL]; -1.01
2) MAAQKDQQKDAEAEGLSGTTLLPKLIPSGAGREWLERRRATIRPWSTFVDQQRFSRPRNLGELCQRLVRNVEYYQSNYVFVFLGLILYCVVTSPMLLVALAVFFGACYILYLRTLESKLVLFGREVSPAHQYALAGGISFPFFWLAGAGSAVFWVLGATLVVIGSHAAFHQIEAVDGEELQMEPV [RABAC1]; -0.547

Okay, now this sequence:
stdin: Form: Entry = MAAAAMAAAAGGGAGAARSLSRFRGCLAGALLGDCVGSFYEAHDTVDLTSVLRHVQSLEPDPGTPGSERTEALYYTDDTAMARALVQSLLAKEAFDEVDMAHRFAQEYKKDPDRGYGAGVVTVFKKLLNPKCRDVFEPARAQFNGKGSYGNGGAMRVAGISLAYSSVQDVQKFARLSAQLTHASSLGYNGAILQALAVHLALQGESSSEHFLKQLLGHMEDLEGDAQSVLDARELGMEERPYSSRLKKIGELLDQASVTREEVVSELGNGIAAFESVPTAIYCFLRCMEPDPEIPSAFNSLQRTLIYSISLGGDTDTIATMAGAIAGAYYGMDQVPESWQQSCEGYEETDILAQSLHRVFQKS [ADPRHL2] | System = HeLa Kyoto | thermal stability score = ____
stdout: -0.404

----------
test system: HeLa Kyoto; test: solubility in G1/S (NP-40 vs SDS abundance) (log2 ratio); higher = more soluble; settings: cell cycle stage: G1/S
Form field: solubility in G1/S (log2) (one value per entry).
Please reply with the value in numeric form only.

1) MPRVVPDQRSKFENEEFFRKLSRECEIKYTGFRDRPHEERQARFQNACRDGRSEIAFVATGTNLSLQFFPASWQGEQRQTPSREYVDLEREAGKVYLKAPMILNGVCVIWKGWIDLQRLDGMGCLEFDEERAQQEDALAQQAFEEARRRTREFEDRDRSHREEMEVRVSQLLAVTGKKTTRP [CBFB]; 0.199

Okay, now this sequence:
stdin: Form: Entry = METQLSNGPTCNNTANGPTTINNNCSSPVDSGNTEDSKTNLIVNYLPQNMTQEELKSLFGSIGEIESCKLVRDKITGQSLGYGFVNYIDPKDAEKAINTLNGLRLQTKTIKVSYARPSSASIRDANLYVSGLPKTMTQKELEQLFSQYGRIITSRILVDQVTGISRGVGFIRFDKRIEAEEAIKGLNGQKPPGATEPITVKFANNPSQKTNQAILSQLYQSPNRRYPGPLAQQAQRFRLDNLLNMAYGVKRFSPMTIDGMTSLAGINIPGHPGTGWCIFVYNLAPDADESILWQMFGPFGAVTNVKVIRDFNTNKCKGFGFVTMTNYDEAAMAIASLNGYRLGDRVLQVSFKTNKTHKA [ELAVL2] | System = HeLa Kyoto | solubility in G1/S (log2) = ____
stdout: 0.208
